# Assay summary: yeast display, Sf9 membrane polyspecificity reagent, FACS + sequencing; frameworks hold sequencing errors
Property: polyreactivity (PSR sort gate)

See these solved cases before continuing.
Sequence code	Value observed
QVQLVESGGGLVQAGGSLRLSCAASGRIFDGYAMGWYRQAPGKERELVAAISNGGGSTYYADSVKGRFTISRDNAKNTVYLQMNSLKPEDTAVYYCAARIFSRYTRNYWGQGTQVTVSS	high polyreactivity
QVQLVESGGGLVQAGGSLRLICAASGSIFPPYAMGWYRQAPGKDREFVAAITISGDSTYYADSVKGRFTISRDNAKNTVYLQMNSLKPEDTAVYYCNADSYAFQYTWGEAYYGLYGYWGQGTQVTVSS	low polyreactivity
QVQLVESGGGLVQAGGSLRLSCAASGITFYDYAMGWYRQAPGKERELVAAISFSGSRTYYADSVKGRFTISRDIAKNTVYLQMNSLKPEDTAVYYCAASQARNYKIYDYWGQGTQVTVSS	high polyreactivity
QVQLVESGGGLVQAVGSLRLSCAASGSILVTYMGWYRPAPGKEREVVAAISYTGGSTYYADSVKGRFTISRDNAKNSVYLQMNSLKPEDTEVFYCASFYLASETYYYFYWPKDSDDYCGQGTQVTVSS	low polyreactivity
QVQLVESGGGLVQAGGSLRLSCAASGSIFAYYAMGWYRQAPGKERELVAAITSGDSTYYADSVKGRFTISRDNAKNTVYLQMNSLKPEDTAVYYCAADVSWRSNWYDYWGQGTQVTVSS	low polyreactivity

Item QVQLVESGGGLVQAGGSLRLSCAASGLTFNWYAMGWYRQAPGKERELVAAINRRGVITYYADSVKGRFTISRDNAKNTVYLQMNSLKPEDTAVYYCNAAYGYVSRVYYLIEHDYWGQGTHVTVSS has what recorded polyreactivity (PSR sort gate)? high polyreactivity

polyreactivity (PSR sort gate) lookup needed for QVQLVESGGGLVQAGGSLRLSCAASGFTFGWYTMGWYRQAPGKEREFVAAISWSGTSTYYADSVKGRFTISRDNAKNTVYLQMNSLKAEDTAVYYCNKLRRGDMEYWGQGTQVTVSS , thanks. high polyreactivity

Tell me the measured polyreactivity (PSR sort gate) of QVQLQESGGGLVQAGCSLRLSCAASGTISVHASMGWYRQAPGKERELVAGITDGANTYYADSVKGRFTISRDNSKNTVYLQMNSLKPEDTAVYYCAAYYGTEVHFTYWGQGTQVTVSS , please. low polyreactivity

Please give the measured polyreactivity (PSR sort gate) for this sequence: QVQLVESGGGLVQAGGSLRLSCAASGRIFVYNVMGWYRQAPGKERELVAAISWGTGSTYADSVKGRFTISRDNAKNSVNLQMNSLKPDDTAVYYCAKESTVRRYDYWGLGTQVTVSS low polyreactivity

* * *

# Assay summary: yeast display, Sf9 membrane polyspecificity reagent, FACS + sequencing; frameworks hold sequencing errors
Property: polyreactivity (PSR sort gate)

Example entries begin here.
Sequence code	Property	Value observed
HVQHVESGGGLVQAGGSLRVSCAASGSIFYTNVMGWYRQAPGKERELVARIDSGGSTNYADSVKGRFTISRDNAKNTVYLQMYSLKPEDTAVYYCAADWYIYDYWGQGTQVTVSS	polyreactivity (PSR sort gate)	low polyreactivity
QVQLVESGGGLVQAGGSLRLSCAASGSIFYPYAMGWYRQAPGKERELVADINSDGSTTYADSVKGRFTISRDNAKNTVYLQMNSLKPEDTAVYYCAVDVSVNWPLLERYEYWGQGTQVTVSS	polyreactivity (PSR sort gate)	low polyreactivity
QVHLLESGGGLVQAGGSLRLSCAASGRTLSRYTMGWYRQAPGKERELVAAISTSGSTYYADSVKGRFTISRDNAKNTVYLPMNCLKPEDTAVYYCAATHWAYSRVPYDYWGQGTQVTVSS	polyreactivity (PSR sort gate)	high polyreactivity
QVQLVESGGGLVHAGGSLRLSCAASGSIFYRNVMGWYRQAPGKERELVAAISRSGGSTYYADSVKGRFTISRDNAKNTVYLQMNSLKPEDTAVYYCAVRYSPFYYWGQGTQVTVSS	polyreactivity (PSR sort gate)	high polyreactivity
HVQLVESGGGLVQAGGSLRLSCAASGSIFAKNAMGWYREAPGKERELVAGIDFSGGSTYYADSVKGRFTISRDNAKNTVYLQMNSLKPEDTAVYYCAADWAYKYELDYWGQGTQVTVSS	polyreactivity (PSR sort gate)	low polyreactivity

Please report the recorded polyreactivity (PSR sort gate) for QVQLVESGGGLVQAGGSLRLTCAASGRIFQRYAMGWYRQAPGKERELVAGITSSGGSTYYADSVKGRFTISRDNAKNTVYLQMNSLKPEDTAVYYCNAGGELRYYGYRAGGTTRSYDYWGQGTQVTVSS . low polyreactivity

What does the record list as polyreactivity (PSR sort gate) for QVQHVESGGGLVQAGGSLRLSCAASGSNFGYVMGWYRQAPGKERELVAAISRSGGSTYYADSVKGRFTISRDNAKNTVYLQMNSLKPEDTAVYYCAARLYSSSYNSEQYYYWGQGTQVTVSS ? high polyreactivity

# polyreactivity (PSR sort gate) lookup, item QVQLVESGGGLVQAGGSLRLSCAASGSTFASYAMGWYRQAPGKQRELVAAITDSGGSTYYADSVKGRFTISRDNAKNTVYLQMNSLKPEDTAVSYCAAYGRYFSYHDYDYWGQGTQVTVSS low polyreactivity

Just for reference, the nanobody polyreactivity screen of Harvey et al. (2022) is where these values come from.
